- assaySystem: Androgen receptor (Homo sapiens)
- assayMethodText: qHTS assay to identify small molecule antagonists of the androgen receptor (AR) signaling pathway (AID 743035); note: potency is the fitted concentration of half-maximal effect
- assayContext: HEK293 AR-UAS-bla, R1881-stimulated, beta-lactamase FRET, 16 h; series mostly up to 58.5 µM
Inconclusive results are not listed. Activity calls are given as the source filed them. Calls come from the whole dose curve; as a rule, active = well fitted inhibition curve with a large enough effect in the signal ratio in the repeat runs (not every such curve was filed as active); inconclusive = weak or mixed curves, or effect the other way; inactive = no such curve, though single readings can be large or run the other way; the % refers to the signal ratio.
quantityName: Potency

CNCC[C@@H](Oc1ccccc1C)c1ccccc1    inactive
C1CCC2OC2C1 (stereo not drawn)    inactive
NC(N)=NN=C(/C=C/c1ccc([N+](=O)[O-])o1)/C=C/c1ccc([N+](=O)[O-])o1    5.35 µM (active)

* * *

- assayMethodText: qHTS assay to identify small molecule antagonists of the sonic hedgehog signaling (Shh) pathway - cell viability counter screen (AID 1259367); note: % is set by controls: 0 for no effect and ±100 for the full control effect; nearly all actives have a fitted effect of over 55% in size
- assayContext: NIH/3T3 Gli1-Luc viability, CellTiter-Fluor, 24 h; series mostly up to 92.4 µM
Inconclusive results are not listed. Calls of active or inactive are those of the source. Calls come from the whole dose curve; as a rule, active = well fitted cell-killing curve with a large enough effect in the repeat runs; inconclusive = weak or mixed curves, or effect the other way; inactive = no such curve, though single readings can be large or run the other way.
Hi there, use one of these labels in your reply, thanks! yes (1) (active), no (0) (inactive)

c1ccc(CNCc2ccccc2)cc1    no (0)
C1=Cc2ccccc2C1    no (0)
CCCCc1cc2ccccc2c(OCCN(C)C)n1    no (0)

Query :: Would you mind telling me which call this test gave CC(=O)/C=C/C1C(C)=CCCC1(C)C (stereo not drawn) ?
Result :: no (0)

Query :: GET /call?item= `CN(c1nccc(=O)[nH]1)C1CCN(c2nc3ccccc3n2Cc2ccc(F)cc2)CC1` returns the recorded outcome of this test.
Result :: no (0)

Query :: Give the logged outcome of this assay for the following compound: C=CC(C)(CCC=C(C)C)OC(=O)c1ccccc1 (stereo not drawn)
Result :: no (0)

Query :: What is the recorded call for this compound in the test? `O=C1Nc2cc(Cl)ccc2Oc2ccccc21`
Result :: no (0)

Query :: Write down the call the test reported for this compound. Item: `CC(C)c1ccccc1C(C)C`
Result :: no (0)
